- target-of-assay: 5-hydroxytryptamine receptor 6 (Homo sapiens, UniProt P50406)
- Sequence (P50406 whole entry): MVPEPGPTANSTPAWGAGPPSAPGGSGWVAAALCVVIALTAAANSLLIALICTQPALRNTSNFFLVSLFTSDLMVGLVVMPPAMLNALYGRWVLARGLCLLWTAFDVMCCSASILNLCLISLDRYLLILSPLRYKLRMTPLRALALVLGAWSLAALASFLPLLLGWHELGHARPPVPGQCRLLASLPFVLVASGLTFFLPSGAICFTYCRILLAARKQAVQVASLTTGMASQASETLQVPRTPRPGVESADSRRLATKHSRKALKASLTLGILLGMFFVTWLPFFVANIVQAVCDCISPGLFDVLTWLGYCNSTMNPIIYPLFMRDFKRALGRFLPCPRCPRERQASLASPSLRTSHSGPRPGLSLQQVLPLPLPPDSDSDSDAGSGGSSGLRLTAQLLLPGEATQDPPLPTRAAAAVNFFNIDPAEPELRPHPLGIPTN
- protocol-notes: Antagonist activity at cloned human 5-HT6 receptor expressed in human HeLa cells assessed as inhibition of 5HT-induced cyclic AMP formation
Listed compounds paired with reported log10 of IC50
Scale: decimal log of IC50, IC50 in nM.

>>> reported("CN(C)CCN(C)Cc1ccc2[nH]nc(S(=O)(=O)c3cccc4ccccc34)c2c1")
1.96
>>> reported("CCN(CC)CCC(=O)Nc1cccc2c(S(=O)(=O)c3cccc4ccccc34)n[nH]c12")
2.14
>>> reported("CN(C)CCNC(=O)c1ccc2[nH]nc(S(=O)(=O)c3cccc4ccccc34)c2c1")
2.01

// fetch 5-hydroxytryptamine receptor 6 (Homo sapiens, UniProt P50406) log10 of IC50 for `O=S(=O)(c1cccc2ccccc12)c1n[nH]c2cccc(NCC3CCNCC3)c12`
1.32

Param item: `O=S(=O)(c1cccc2ccccc12)c1n[nH]c2cccc(NC3CCNCC3)c12`
1.75

One more compound: `O=S(=O)(c1cccc2ccccc12)c1n[nH]c2c(NCC3CCNCC3)cccc12`
1.94

Same read-out for O=S(=O)(c1cccc2ccccc12)c1n[nH]c2ccc(NC3CCCNC3)cc12 (stereo not given) ?
1.98

Then what about the compound `NCCNc1ccc2c(S(=O)(=O)c3cccc4ccccc34)n[nH]c2c1` ?
1.94

Same thing, different compound: `CN(C)CCC(=O)Nc1cccc2c(S(=O)(=O)c3cccc4ccccc34)n[nH]c12`
2.14

And for `Cl.O=S(=O)(c1cccc(Cl)c1)c1n[nH]c2ccc(NC3CCNCC3)cc12` ?
1.08
